Target: Human LPA1 (Homo sapiens, UniProt Q92633)
Sequence (Q92633 whole entry): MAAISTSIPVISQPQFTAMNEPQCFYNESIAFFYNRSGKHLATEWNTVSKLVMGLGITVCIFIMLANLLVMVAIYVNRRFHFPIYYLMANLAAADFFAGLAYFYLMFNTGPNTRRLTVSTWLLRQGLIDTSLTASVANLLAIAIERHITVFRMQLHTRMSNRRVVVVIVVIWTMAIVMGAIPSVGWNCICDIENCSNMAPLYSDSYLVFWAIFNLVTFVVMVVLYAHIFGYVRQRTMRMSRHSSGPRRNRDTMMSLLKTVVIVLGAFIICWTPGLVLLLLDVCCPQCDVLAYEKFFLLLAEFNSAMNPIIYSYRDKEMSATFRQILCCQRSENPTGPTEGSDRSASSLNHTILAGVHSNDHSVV
Assay Text: Beta-Arrestin based assay for human LPA1R antagonists (PathHunter)
Reported Conditions: CHO cells expressing ProLink tagged human LPA1R; antagonist mode, 0.5 micromolar LPA
pEC50: −log10 of the molar value.
In this section we review reported pEC50 values for a set of compounds.

A selection of reference data follows.
Compound | Target | pEC50
Cc1noc(-c2ccc(-c3ccc4c(C(=O)O)c[nH]c4c3)cc2)c1NC(=O)O[C@H](C)c1ccccc1 | Human LPA1 (Homo sapiens, UniProt Q92633) | < 6.30
C[C@@H](OC(=O)Nc1c(C#Cc2cc3sc(C4(CO)CC4)cc3s2)cnn1C)c1ccccc1 | Human LPA1 (Homo sapiens, UniProt Q92633) | < 6.30
C[C@@H](OC(=O)Nc1c(C#Cc2ccc3cc(C4(C(=O)O)CC4)ccc3c2)sc2ncccc12)c1ccccc1 | Human LPA1 (Homo sapiens, UniProt Q92633) | > 7.30
C[C@@H](OC(=O)Nc1c(C#Cc2cc3sc(C4(C(=O)NS(C)(=O)=O)CC4)cc3s2)cnn1C)c1ccccc1 | Human LPA1 (Homo sapiens, UniProt Q92633) | > 7.30
C[C@@H](OC(=O)Nc1c(C(F)(F)F)nnn1-c1ccc(-c2ccc(C3(C(=O)O)CC3)cc2)cc1)c1ccccc1 | Human LPA1 (Homo sapiens, UniProt Q92633) | > 7.30
Cc1noc(C#Cc2ccc(CC3(C(=O)O)CC3)cc2)c1NC(=O)O[C@H](C)c1ccccc1 [IT001] | Human LPA1 (Homo sapiens, UniProt Q92633) | 6.30 to 7.30

Kindly consider the entry below.
input: pEC50 lookup needed for `C[C@@H](OC(=O)N(C)c1c(C#Cc2cc3sc(C4(C(=O)O)CC4)cc3s2)cnn1C)c1ccccc1` , thanks.
output: 6.30 to 7.30

====

Target: Human LPA1 (Homo sapiens, UniProt Q92633)
Assay Text: Beta-Arrestin based assay for human LPA1R antagonists (PathHunter)
Reported Conditions: CHO cells expressing ProLink tagged human LPA1R; antagonist mode, 0.5 micromolar LPA
Measured Property: EC50

Molecule | Result
Cc1noc(-c2cc(F)c(-c3ccc(C4(C(=O)O)CCOCC4)cc3)cc2F)c1NC(=O)O[C@H](C)c1ccccc1 [IT030] | > 500 nM

input: For the record `C[C@@H](OC(=O)Nc1c(C#Cc2cc3sc(C4(C(=O)O)CC4)cc3s2)nnn1C)c1ccccc1` , what value of EC50 is listed for Human LPA1 (Homo sapiens, UniProt Q92633)?
output: < 50 nM

input: Also need `Cc1noc(C#Cc2ccc3cc(CC4(C(=O)O)CC4)ccc3c2)c1NC(=O)O[C@H](C)c1ccccc1` , thanks.
output: 50 to 500 nM

input: Same again, this time with Cc1noc(-c2ccc(-c3ccc(C4(C(=O)O)CC4)cc3)cc2)c1NC(=O)OC(C)c1cccc2ocnc12 (single isomer, unassigned) [IT077]
output: 50 to 500 nM

====

We begin with a simple list: items and their reported EC50.
Target: Human LPA1 (Homo sapiens, UniProt Q92633)
Assay Text: Beta-Arrestin based assay for human LPA1R antagonists (PathHunter)
Assay type: cell-based
Reported Conditions: CHO cells expressing ProLink tagged human LPA1R; antagonist mode, 0.5 micromolar LPA

Guide cases for EC50, answers given:
Compound | EC50
Cc1noc(C#Cc2cc3sc(C4(C(=O)O)CC4)cc3s2)c1NC(=O)O[C@H](C)c1ccccc1Cl [IT047] | < 50 nM
COCCOC(=O)C1(c2cc3sc(C#Cc4cnn(C)c4NC(=O)O[C@H](C)c4ccccc4)cc3s2)CC1 [IT084] | < 50 nM
Cc1nsc(-c2ccc3cc(C4CCC(C(=O)O)CC4)ccc3c2)c1NC(=O)O[C@H](C)c1ccccc1 (stereo partly shown) [IT053] | > 500 nM
C[C@@H](OC(=O)Nc1c(-c2ccc(-c3ccc(C4(C(=O)O)CC4)cc3)cc2)nc2cccnn12)c1ccccc1 [IT041] | > 500 nM
Cc1nsc(C2CCC(c3ccc(C4(C(=O)O)CC4)cc3)CC2)c1NC(=O)O[C@H](C)c1ccccc1 (single isomer, unassigned) [IT059] | 50 to 500 nM
C[C@@H](OC(=O)Nc1c(-c2ccc(-c3ccc(C4(C(=O)O)CC4)cc3)cc2)nc2ncccn12)c1ccccc1 [IT043] | < 50 nM

input: Can you look up the measured EC50 of Cc1nsc(-c2cc3cc4sc(C(=O)O)cc4cc3s2)c1NC(=O)O[C@H](C)c1ccccc1 [IT080] for me?
output: > 500 nM

====

Target: Human LPA1 (Homo sapiens)
Assay Text: Beta-Arrestin based assay for human LPA1R antagonists (PathHunter)
Reported Conditions: CHO cells expressing ProLink tagged human LPA1R; antagonist mode, 0.5 micromolar LPA
pEC50: −log10 of the molar value.
Recorded pEC50 for the following molecules

Solved cases (3 shown):
Molecule | pEC50
CC(C)OC(=O)C1(c2cc3sc(C#Cc4cnn(C)c4NC(=O)O[C@H](C)c4ccccc4)cc3s2)CC1 [IT086] | 6.30 to 7.30
C[C@@H](OC(=O)Nc1c(C#Cc2cc3sc(C4(C(=O)OCOC(=O)C(C)(C)C)CC4)cc3s2)cnn1C)c1ccccc1 [IT087] | > 7.30
Cc1noc(-c2ccc(-c3nc4ccc(C(=O)O)cc4s3)cc2)c1NC(=O)O[C@H](C)c1ccccc1 [IT010] | < 6.30

input: Would you mind telling me what pEC50 value was observed for CCOC(=O)C1(c2cc3sc(C#Cc4cnn(C)c4NC(=O)O[C@H](C)c4ccccc4)cc3s2)CC1 [IT085] ?
output: > 7.30

input: Can you check Cc1nsc(-c2ccc(C34CCC(C5(C(=O)O)CC5)(CC3)CC4)cc2)c1NC(=O)O[C@H](C)c1ccccc1 [IT093] next?
output: < 6.30

input: # repeat for C[C@@H](OC(=O)Nc1c(-c2ccc(-c3ccc(C4(C(=O)O)CC4)cc3)cc2)nc2n1CCNC2)c1ccccc1 [IT019]
output: < 6.30

input: # iterate: C[C@@H](OC(=O)Nc1c(-c2ccc(-c3ccc(C4(C(=O)O)CC4)cc3)cc2)sc2ncccc12)c1ccccc1 [IT031]
output: > 7.30

input: Cool, now Cc1noc(-c2ccc(-c3ccc4c(c3)OCCC4C(=O)O)cc2)c1NC(=O)O[C@H](C)c1ccccc1 (stereo partly drawn) [IT037]
output: 6.30 to 7.30

====

Target: Human LPA1 (Homo sapiens)
Assay Text: LPA1 calcium flux assay
Reported Conditions: human LPA1 expressing CHO cells, stimulated with 10 nM LPA; read-out: Ca Flux LPA1 IC50
pIC50: −log10 of the molar value.
Listed below: pIC50 values for each entry.

Record excerpt, results attached:
Substance Smiles | Target | pIC50
C[C@@H](OC(=O)Nc1c(-c2cc(F)c(-c3cc4sc(C5(C(=O)O)CC5)cc4s3)cc2F)nnn1C)c1ccccc1 | Human LPA1 (Homo sapiens) | 6.30 to 7.30
C[C@@H](OC(=O)Nc1c(C#Cc2ccc3cc(C4(C(=O)O)CC4)ccc3c2)cnn1C1CC1)c1ccccc1 | Human LPA1 (Homo sapiens) | 6.30 to 7.30
Cc1noc(C#Cc2ccc3cc(C4(CC(=O)O)CC4)ccc3c2)c1NC(=O)O[C@H](C)c1ccccc1 | Human LPA1 (Homo sapiens) | > 7.30

input: What value of pIC50 has been recorded for this entry: `Cc1noc(-c2ccc(-c3nc4ccc(C(=O)O)cc4s3)cc2)c1NC(=O)O[C@H](C)c1ccccc1`
output: < 6.30

====

EC50 values, listed per item
Target: UniProtKB Q92633
Assay Text: Beta-Arrestin based assay for human LPA1R antagonists (PathHunter)
Reported Conditions: CHO cells expressing ProLink tagged human LPA1R; antagonist mode, 0.5 micromolar LPA
Text: Beta-Arrestin Based Assays for Human LPA1R Antagonists and Agonists A CHO cell line stably expressing the ProLink™ tagged human LPA1R was obtained from DiscoverX Inc, Fremont, Calif. […] End point luminescence data were plotted and fit to a 4 parameter logistic function to obtain IC50 values. […]

Here's what some known entries look like.
Compound | Measured Property | Result
Cc1nsc(-c2cc(F)c(-c3ccc(C4(C(=O)O)CCOCC4)cc3)cc2F)c1NC(=O)OCc1ccccc1 | EC50 | > 500 nM
Cc1noc(C#Cc2ccc3cc(C4(CC(=O)O)CC4)ccc3c2)c1NC(=O)O[C@H](C)c1ccccc1 | EC50 | < 50 nM
COc1ccccc1OC(=O)C1(c2cc3sc(C#Cc4cnn(C)c4NC(=O)O[C@H](C)c4ccccc4)cc3s2)CC1 | EC50 | < 50 nM
Cc1noc(-c2ccc(-c3ccc4c(c3)CCOC4C(=O)O)cc2)c1NC(=O)O[C@H](C)c1ccccc1 (stereo partly shown) | EC50 | > 500 nM
C[C@@H](OC(=O)Nc1c(-c2ccc(-c3ccc(C4(C(=O)O)CCOCC4)cc3)cc2)ncn1C)c1ccccc1 | EC50 | 50 to 500 nM

input: Recorded EC50 for `C[C@@H](OC(=O)Nc1c(-c2cc(F)c(-c3ccc(C4(C(=O)O)CCOCC4)cc3)cc2F)nnn1C)c1ccccc1` , please?
output: 50 to 500 nM

input: Another: `Cc1noc(C#Cc2ccc(/C=C/C(=O)O)cc2)c1NC(=O)O[C@H](C)c1ccccc1`
output: > 500 nM
